molecular target: KDR kinase (Homo sapiens (Human), UniProt P35968); test: KDR control kinase activity, HTRF KinEASE-TK TR-FRET assay; type: biochemical; conditions: inhibition of KDR kinase; 16000 nM~0.04 nM, 2% DMSO
Sequence (P35968 20-1356): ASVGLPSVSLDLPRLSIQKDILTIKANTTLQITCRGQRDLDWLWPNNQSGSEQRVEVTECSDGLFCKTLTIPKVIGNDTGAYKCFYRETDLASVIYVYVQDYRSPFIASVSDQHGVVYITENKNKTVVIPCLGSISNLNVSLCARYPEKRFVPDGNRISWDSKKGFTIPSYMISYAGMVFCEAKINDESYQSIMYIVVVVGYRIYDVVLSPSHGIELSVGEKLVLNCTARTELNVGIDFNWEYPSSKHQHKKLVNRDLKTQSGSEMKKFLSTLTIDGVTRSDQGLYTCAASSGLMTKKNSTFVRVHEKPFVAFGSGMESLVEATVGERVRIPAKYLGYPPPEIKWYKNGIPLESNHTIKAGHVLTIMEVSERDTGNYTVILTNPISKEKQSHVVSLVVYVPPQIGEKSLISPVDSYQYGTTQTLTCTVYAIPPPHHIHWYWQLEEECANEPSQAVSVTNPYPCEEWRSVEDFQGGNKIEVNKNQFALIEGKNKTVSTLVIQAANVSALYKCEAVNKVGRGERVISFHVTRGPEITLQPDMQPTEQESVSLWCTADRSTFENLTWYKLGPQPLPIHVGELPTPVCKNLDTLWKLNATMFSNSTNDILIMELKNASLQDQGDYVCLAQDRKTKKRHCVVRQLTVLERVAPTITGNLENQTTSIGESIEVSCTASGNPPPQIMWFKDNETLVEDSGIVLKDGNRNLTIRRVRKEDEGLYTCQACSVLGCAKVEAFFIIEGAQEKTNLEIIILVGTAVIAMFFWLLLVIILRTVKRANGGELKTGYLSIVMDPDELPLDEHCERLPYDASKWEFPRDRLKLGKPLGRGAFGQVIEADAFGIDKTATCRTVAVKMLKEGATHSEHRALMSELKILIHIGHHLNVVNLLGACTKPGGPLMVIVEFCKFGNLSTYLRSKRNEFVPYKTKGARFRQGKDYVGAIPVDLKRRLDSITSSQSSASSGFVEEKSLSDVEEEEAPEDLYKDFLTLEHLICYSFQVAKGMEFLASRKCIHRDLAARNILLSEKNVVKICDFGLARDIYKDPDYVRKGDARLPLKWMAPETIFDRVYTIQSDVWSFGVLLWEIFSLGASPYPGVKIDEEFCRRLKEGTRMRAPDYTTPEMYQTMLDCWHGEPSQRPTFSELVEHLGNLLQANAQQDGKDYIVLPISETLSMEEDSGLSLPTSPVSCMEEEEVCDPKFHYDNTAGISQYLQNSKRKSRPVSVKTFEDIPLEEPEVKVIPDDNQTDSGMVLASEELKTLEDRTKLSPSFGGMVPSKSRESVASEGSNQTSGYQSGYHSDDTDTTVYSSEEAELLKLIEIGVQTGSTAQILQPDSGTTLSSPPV
quantityKind: log10 of IC50 (log10 of the value in nM)
For clarity, the numbers are log10 values of IC50 expressed in nM.

COC(=O)c1cc(Nc2cc(C)[nH]n2)nc(N2CC3CCC(C2)N3C(=O)c2ccc(-n3cc(F)cn3)nc2)n1 ... 3.01
Cc1cc(Nc2cc(C)[nH]n2)nc(N2CC3CCC(C2)N3C(=O)c2ccc(-c3cnn(C)c3)nc2)n1 ... 2.57

Recorded result, Cc1cc(Nc2cc(C(=O)O)nc(N3CC4CCC(C3)N4C(=O)c3ccc(-n4cc(F)cn4)nc3)n2)n[nH]1 , log10 of IC50: 3.44

Recorded result, Cc1cc(Nc2cc(C)[nH]n2)nc(N2CC3COCC(C2)N3C(=O)c2ccc(-n3cc(F)cn3)nc2)n1 , log10 of IC50: 2.59

Recorded result, Cc1cc(Nc2cc(CO)nc(N3CC4CCC(C3)N4C(=O)c3ccc(-n4cc(F)cn4)nc3)n2)n[nH]1 , log10 of IC50: 3.19

Recorded result, Cc1cc(Nc2cc(C(F)(F)F)nc(N3CC4CCC(C3)N4C(=O)c3ccc(-n4cc(F)cn4)nn3)n2)n[nH]1 , log10 of IC50: 2.87

Recorded result, Cc1cc(Nc2cc(C)[nH]n2)nc(N2CCN(C(=O)c3ccc(-n4cc(F)cn4)nc3)C3(CC3)C2)n1 , log10 of IC50: 2.26
